biological target: human CD38 enzyme in primary human CD4+ T cells (Homo sapiens, UniProt P28907); construct: whole primary human CD4+ T cells (from healthy donors); endogenous in cells; assay: NAD+ hydrolase activity assay in primary human activated CD4+ T cells (Assay 7); conditions: primary human CD4+ T cells activated with anti-CD3/CD28
Measurement type: IC50 (nM)
Answer with a number only, understood to be in nM.

Give the measured IC50 for COc1cc(C(=O)Nc2ccnc(C(F)(F)F)c2)nc(-n2ccnc2)c1
0.179

====

Listed molecules paired with reported IC50
target: recombinant human CD38 Protein (Homo sapiens, UniProt P28907); construct: purchased R&D System; assay: Fluorescence-based NAD+ cyclase activity assay with human recombinant CD38 protein (Assay 2); type: biochemical; settings: read-out: Assay 2 Arithmetic mean IC50

Below, each entry is followed by its recorded IC50 result.
molecule="O=C(Nc1cccnc1)c1nc(-n2ccnc2)ccc1F [Compound 62]" reported_value="1000 to 10000 nM"
molecule="Cc1cc(C(=O)Nc2ccc(C(N)=O)nc2)nc(-n2ccnc2)c1 [Compound 54]" reported_value="1 to 50 nM"

Here is the next item to consider.
Look up IC50 of CC(=O)Nc1ccc(NC(=O)c2cccc(-n3ccnc3)n2)cn1 [Compound 16] and report it.
51 to 1000 nM

====

Biological target: recombinant human CD38 Protein (Homo sapiens)
Construct: purchased R&D System
Sequence (P28907 1-300): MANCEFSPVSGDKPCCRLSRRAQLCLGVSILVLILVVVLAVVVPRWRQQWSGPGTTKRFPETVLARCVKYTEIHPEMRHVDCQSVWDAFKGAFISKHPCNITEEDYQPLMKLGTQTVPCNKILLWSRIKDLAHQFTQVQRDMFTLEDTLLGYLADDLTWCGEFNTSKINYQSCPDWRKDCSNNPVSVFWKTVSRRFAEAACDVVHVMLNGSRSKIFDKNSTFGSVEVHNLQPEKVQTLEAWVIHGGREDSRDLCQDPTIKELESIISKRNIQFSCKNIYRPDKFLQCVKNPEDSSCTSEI
Experiment: Fluorescence-based NAD+ cyclase activity assay with human recombinant CD38 protein (Assay 2)
Format: biochemical
Conditions: read-out: Assay 2 Arithmetic mean IC50
Measurement type: IC50

molecule="O=C(Nc1ccnc(C(F)(F)F)c1)c1cc(OCC2CCOCC2)cc(-n2ccnc2)n1 [Compound 30]" measurement_type=IC50 reported_value="51 to 1000 nM"
molecule="COCCOc1cc(C(=O)Nc2ccnc(C(F)(F)F)c2)nc(-n2ccnc2)n1 [Compound 39]" measurement_type=IC50 reported_value="1 to 50 nM"
molecule="O=C(Nc1ccc(C(F)(F)F)nc1)c1cccc(-n2ccnc2)n1 [Compound 9]" measurement_type=IC50 reported_value="51 to 1000 nM"
molecule="COc1cc(NC(=O)c2cccc(-n3ccnc3)n2)ccn1 [Compound 12]" measurement_type=IC50 reported_value="51 to 1000 nM"
molecule="CC(=O)N(C)c1ccc(NC(=O)c2cccc(-n3ccnc3)n2)cn1 [Compound 15]" measurement_type=IC50 reported_value="1000 to 10000 nM"
molecule="Cc1cc(C(=O)Nc2cccnc2)nc(-n2ccnc2)n1 [Compound 49]" measurement_type=IC50 reported_value="1 to 50 nM"
molecule="Cc1ccc(-n2ccnc2)nc1C(=O)Nc1cccnc1 [Compound 59]" measurement_type=IC50 reported_value="51 to 1000 nM"
molecule="O=C(Nc1ccnc(C(F)(F)F)c1)c1cc(OC2CC2)nc(-n2ccnc2)n1 [Compound 40]" measurement_type=IC50 reported_value="51 to 1000 nM"

State its IC50 for this molecule: Cc1cc(C(=O)Nc2ccnc(C(N)=O)c2)nc(-n2ccnc2)c1 [Compound 55]
51 to 1000 nM

Tell us which IC50 value is on record for O=C(Nc1cccnc1)c1cncc(-n2ccnc2)n1 [Compound 70]
1000 to 10000 nM

Please supply the value of reported IC50 for the item O=C(Nc1ccnc(C(F)(F)F)c1)c1cccc(-n2ccnc2)n1 [Compound 28]
1000 to 10000 nM
